Please provide measured APOE RNA (% control) Cortex for the entries that follow.
- System: human APOE RNA
- experiment description: Activity in APOE C57BL/6NTac-Apoeem7250 knock-in mice, single ICV bolus, 20 weeks (Example 13)
- Format: in vivo
- study conditions: cortex; single ICV bolus 300 μg; 20 weeks post treatment; normalized to mouse Ppia
Strand notation (5' to 3'): a small letter for the sugar, then the base; units joined by * are phosphorothioate-linked, units joined directly phosphodiester-linked; [ ] holds rarer units or linkages, { } end groups; capitals alone tell only the bases. [ms] = mesyl phosphoramidate linkage; e = 2'-O-(2-methoxyethyl) (MOE); k = constrained ethyl (cEt); [5mC] = 5-methylcytosine; d = 2'-deoxy (DNA)
One number for each entry, in % control.

Return reported APOE RNA (% control) Cortex. Input substance: 1757561: mixed MOE/cEt gapmer TTGGTGAATCTTTATTAA, sugar eeekkddddddddkeeee, linkages soossssssssssooss (eT*eTeGkG*kT*dG*dA*dA*dT*d[5mC]*dT*dT*dT*kAeTeT*eA*eA) [compound 1757561]
92

Further cases:
Return reported APOE RNA (% control) Cortex. Input substance: 1785617: modified oligonucleotide complementary to human APOE RNA (k[5mC]*dT[ms]dT[ms]kG*dG[ms]kT*dG[ms]dA[ms]dA[ms]dT[ms]d[5mC]*dT*dT*dT*dA*dT*kT*kA*dA[ms]kA; antisense) [compound 1785617]
61

---

- Tested on: human APOE RNA
- experiment description: Activity in APOE C57BL/6NTac-Apoeem7250 knock-in mice, single ICV bolus, 8 weeks (Example 11)
- Type: in vivo
- study conditions: cortex; single ICV bolus 300 μg; 8 weeks post treatment; normalized to mouse Ppia
Strand notation (5' to 3'): a small letter for the sugar, then the base; units joined by * are phosphorothioate-linked, units joined directly phosphodiester-linked; [ ] holds rarer units or linkages, { } end groups; capitals alone tell only the bases. [ms] = mesyl phosphoramidate linkage; e = 2'-O-(2-methoxyethyl) (MOE); k = constrained ethyl (cEt); [5mC] = 5-methylcytosine; d = 2'-deoxy (DNA)
measurement kind: APOE RNA (% control) Cortex
One number for each entry, in % control.

Field: example entries. Status: answers known.
Return reported APOE RNA (% control) Cortex. Input substance: 1652913: 5-10-5 MOE gapmer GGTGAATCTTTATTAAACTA, linkages soooszssssszsszooss (antisense eG*eGeTeGeA*dA[ms]dT*d[5mC]*dT*dT*dT*dA[ms]dT*dT*dA[ms]eAeAe[5mC]*eT*eA) [compound 1652913]
75

Return reported APOE RNA (% control) Cortex. Input substance: 1785600 (k[5mC]*kT*kT*dG[ms]dG[ms]dT[ms]dG*dA*dA*dT*d[5mC]*dT[ms]dT[ms]dT[ms]dA*dT*kT*kA*dA[ms]kA; antisense) [Compound 1785600]
36

Return reported APOE RNA (% control) Cortex. Input substance: 1681020: 5-10-5 MOE gapmer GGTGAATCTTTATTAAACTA, linkages zsssszsssszzszssssz (antisense eG[ms]eG*eT*eG*eA*dA[ms]dT*d[5mC]*dT*dT*dT[ms]dA[ms]dT*dT[ms]dA*eA*eA*e[5mC]*eT[ms]eA) [compound 1681020]
63

Now for a further substance.
Return reported APOE RNA (% control) Cortex. Input substance: 1778127: modified oligonucleotide complementary to human APOE RNA (eA*e[5mC]eTeTkGkG*dT*dG[ms]dA[ms]dA*dT*d[5mC]*dT*dT*dT*dA[ms]kTeT[ms]eA[ms]eA; antisense) [compound 1778127]
28

Hey, just so you know, these numbers are from patent US20250353873A1.
